- Test system: HCT116, a colorectal carcinoma cell line
- assay_remarks: Tetrazolium dye proliferation assay (MTT assay)
- Type: cell-based
- settings: Homo sapiens, HCT-116, HCT116 cells, inhibition of cell proliferation
List of pIC50 values.
pIC50 here is simply -log10 of the concentration when that concentration is written in mol/L.

# count of solved cases: 3
molecule	pIC50
CN(C)CCOc1ccc(Nc2nc(N)c(C(=O)c3cccc([N+](=O)[O-])c3)s2)cc1	5.79
CCNCCOc1ccc(Nc2nc(N)c(C(=O)c3cccc(C)c3)s2)cc1	6.06
CCN1CCCC(Oc2ccc(Nc3nc(N)c(C(=O)c4cccc(F)c4)s3)cc2)C1 (centres unmarked)	6.12

query: Value lookup for pIC50; key = Nc1nc(Nc2ccc(OCCN3CCCC3)cc2)sc1C(=O)c1ccc2c(c1)OCO2
result: 5.53

query: Now the molecule CCNCCOc1ccc(Nc2nc(N)c(C(=O)c3cccc(F)c3)s2)cc1
result: 6.16

---

List of IC50 values.
- system: human cyclin D1-CDK4 (Homo sapiens, UniProt P11802)
- Sequence (P11802 whole entry): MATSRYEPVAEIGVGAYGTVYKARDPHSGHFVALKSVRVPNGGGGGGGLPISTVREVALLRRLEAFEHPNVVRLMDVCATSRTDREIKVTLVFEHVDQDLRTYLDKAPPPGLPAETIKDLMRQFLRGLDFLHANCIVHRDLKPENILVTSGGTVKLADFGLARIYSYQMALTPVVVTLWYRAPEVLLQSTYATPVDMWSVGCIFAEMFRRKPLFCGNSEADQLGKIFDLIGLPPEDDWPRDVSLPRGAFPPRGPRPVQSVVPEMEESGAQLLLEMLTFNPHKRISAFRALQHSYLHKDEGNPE
- Sequence (P24385 whole entry partner): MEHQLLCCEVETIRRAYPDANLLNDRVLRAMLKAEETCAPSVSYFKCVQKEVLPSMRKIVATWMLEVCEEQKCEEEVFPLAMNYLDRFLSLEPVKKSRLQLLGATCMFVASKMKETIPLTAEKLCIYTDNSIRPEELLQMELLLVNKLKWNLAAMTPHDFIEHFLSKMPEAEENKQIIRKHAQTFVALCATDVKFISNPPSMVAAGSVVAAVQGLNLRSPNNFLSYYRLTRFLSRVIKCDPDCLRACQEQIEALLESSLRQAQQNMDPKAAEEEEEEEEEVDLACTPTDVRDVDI
- assay_remarks: FlashPlate kinase assay, cyclin D1-CDK4, Rb substrate
- settings: recombinant cyclin D1-CDK4, Rb phosphorylation, 1 μM ATP
Give just the numeric value; nM need not be written.

query: Value lookup for IC50; key = COc1ccc(C(=O)c2sc(Nc3ccc(OCCN(C)C)cc3)nc2N)cc1[N+](=O)[O-]
result: 88

---

- system: human cyclin D1-CDK4 (Homo sapiens)
- assay_remarks: FlashPlate kinase assay, cyclin D1-CDK4, Rb substrate
- Format: biochemical
- settings: recombinant cyclin D1-CDK4, Rb phosphorylation, 1 μM ATP
Could you mark each record Satisfied if its IC50 falls strictly under 30 nM, and Not satisfied if it equals or exceeds it?

query: Consider the compound CCOc1cccc(C(=O)c2sc(Nc3ccc(OCCN4CCCC4)cc3)nc2N)c1 . Is its IC50 strictly less than 30 nM?
result: Not satisfied

---

- system: UniProtKB P06493
- Sequence (P06493 whole entry): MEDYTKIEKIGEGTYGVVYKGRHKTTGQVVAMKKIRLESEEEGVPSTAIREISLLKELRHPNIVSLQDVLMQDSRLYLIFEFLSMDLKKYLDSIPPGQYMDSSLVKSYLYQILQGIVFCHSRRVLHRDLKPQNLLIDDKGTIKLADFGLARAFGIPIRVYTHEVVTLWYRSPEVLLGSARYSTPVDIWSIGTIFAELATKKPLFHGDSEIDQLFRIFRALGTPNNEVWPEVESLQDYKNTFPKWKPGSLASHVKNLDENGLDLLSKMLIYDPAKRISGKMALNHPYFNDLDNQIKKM
- Sequence (P14635 whole entry partner): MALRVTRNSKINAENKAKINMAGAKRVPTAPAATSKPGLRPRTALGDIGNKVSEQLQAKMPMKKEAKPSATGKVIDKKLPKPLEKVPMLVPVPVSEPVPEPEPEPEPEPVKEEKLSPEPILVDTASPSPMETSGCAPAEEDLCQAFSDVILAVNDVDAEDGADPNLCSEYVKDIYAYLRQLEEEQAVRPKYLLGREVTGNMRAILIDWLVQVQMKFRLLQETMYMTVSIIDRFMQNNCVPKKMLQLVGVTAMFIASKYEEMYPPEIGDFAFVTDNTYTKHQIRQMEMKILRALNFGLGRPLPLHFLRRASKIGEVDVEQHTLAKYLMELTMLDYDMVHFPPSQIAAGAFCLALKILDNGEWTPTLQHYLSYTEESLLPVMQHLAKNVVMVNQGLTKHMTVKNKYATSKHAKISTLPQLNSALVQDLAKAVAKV
- assay_remarks: FlashPlate kinase assay, cyclin B-CDK1, Rb substrate
- settings: recombinant cyclin B-CDK1, Rb phosphorylation, 1 μM ATP
measurement_type: pIC50
pIC50 here is simply -log10 of the concentration when that concentration is written in mol/L.

# count of solved cases: 4
compound	observed_measurement
CN(C)CCOc1ccc(Nc2nc(N)c(C(=O)c3cccc(F)c3)s2)cc1 [Example 37]	6.90
CCc1cccc(C(=O)c2sc(Nc3ccc(OCC(C)(C)N(C)C)cc3)nc2N)c1 [Example 61]	5.92
C[C@H](COc1ccc(Nc2nc(N)c(C(=O)c3cccc(C4CC4)c3)s2)cc1)N(C)C [Example 70]	5.53
CN(C)CCOc1ccc(Nc2nc(N)c(C(=O)c3cccc(Br)c3)s2)cc1 [Example 65]	5.97

query: Value lookup for pIC50; key = Cc1cccc(C(=O)c2sc(Nc3ccc(OCCN(C)C)cc3)nc2N)c1 [Example 50]
result: 5.77

---

List of pIC50 values.
- System: HCT116, a colorectal carcinoma cell line
- assay_remarks: Tetrazolium dye proliferation assay (MTT assay)
- Type: cell-based
- settings: Homo sapiens, HCT-116, HCT116 cells, inhibition of cell proliferation
pIC50 here is simply -log10 of the concentration when that concentration is written in mol/L.

# count of solved cases: 8
molecule	measurement_type	observed_measurement
CCc1cccc(C(=O)c2sc(Nc3ccc(OC[C@@H](C)N4CCCC4)cc3)nc2N)c1	pIC50	6.07
CCNCCOc1ccc(Nc2nc(N)c(C(=O)c3ccc4c(c3)OCCO4)s2)cc1	pIC50	5.14
CCCc1cc(C(=O)c2sc(Nc3ccc(OCC(C)(C)N(C)C)cc3)nc2N)ccc1O	pIC50	6.29
CCc1cccc(C(=O)c2sc(Nc3ccc(OC4CCNC4)cc3)nc2N)c1 (centres unmarked)	pIC50	5.80
CN(C)C(C)(C)COc1ccc(Nc2nc(N)c(C(=O)c3cccc(C4CC4)c3)s2)cc1	pIC50	5.63
CN1CCC[C@H]1COc1ccc(Nc2nc(N)c(C(=O)c3cccc(F)c3)s2)cc1	pIC50	6.41
Nc1nc(Nc2ccc(OCCN3CCCC3)cc2)sc1C(=O)c1cccc(F)c1	pIC50	6.29
COc1ccc(C(=O)c2sc(Nc3ccc(OC4CCNC4)cc3)nc2N)cc1F (centres unmarked)	pIC50	5.48

query: Value lookup for pIC50; key = COc1cccc(C(=O)c2sc(Nc3ccc(OCCn4ccnc4)cc3)nc2N)c1
result: 5.38

query: Now the molecule CCCc1cc(C(=O)c2sc(Nc3ccc(OC4CCCN(CC)C4)cc3)nc2N)ccc1O (centres unmarked)
result: 6.55

query: Now the molecule CCCc1cc(C(=O)c2sc(Nc3ccc(OC[C@@H](C)N4CCCC4)cc3)nc2N)ccc1O
result: 6.54

query: Now the molecule CN1CCC[C@H]1COc1ccc(Nc2nc(N)c(C(=O)c3cccc(C4CC4)c3)s2)cc1
result: 5.97

query: Now the molecule C[C@H](COc1ccc(Nc2nc(N)c(C(=O)c3cccc(F)c3)s2)cc1)N1CCCC1
result: 6.17

query: Now the molecule CCN1CCC(Oc2ccc(Nc3nc(N)c(C(=O)c4cccc(C5CC5)c4)s3)cc2)C1 (centres unmarked)
result: 5.70

query: Now the molecule CCCc1cc(C(=O)c2sc(Nc3ccc(OC4CCN(CC)C4)cc3)nc2N)ccc1O (centres unmarked)
result: 6.49

query: Now the molecule CCCc1cc(C(=O)c2sc(Nc3ccc(OC[C@@H](C)N(C)C)cc3)nc2N)ccc1O
result: 6.31

query: Now the molecule Cc1cccc(C(=O)c2sc(Nc3ccc(OCCN(C)C)cc3)nc2N)c1
result: 5.98

query: Now the molecule CCc1cc(C(=O)c2sc(Nc3ccc(OC[C@@H](C)N(C)C)cc3)nc2N)ccc1F
result: 5.36

query: Now the molecule CCN(CC)CCOc1ccc(Nc2nc(N)c(C(=O)c3ccc(OC)c(F)c3)s2)cc1
result: 5.65

query: Now the molecule CCCc1cc(C(=O)c2sc(Nc3ccc(OCCNCC)cc3)nc2N)ccc1O
result: 6.41

query: Now the molecule CC(C)NCCOc1ccc(Nc2nc(N)c(C(=O)c3ccc4c(c3)OCO4)s2)cc1
result: 5.76

query: Now the molecule Nc1nc(Nc2ccc(OCCN3CCCC3)cc2)sc1C(=O)c1cccc(C(F)(F)F)c1
result: 5.34

query: Now the molecule Nc1nc(Nc2ccc(OC3CCNC3)cc2)sc1C(=O)c1cccc(F)c1 (centres unmarked)
result: 5.91

query: Now the molecule CCN1CCC(Oc2ccc(Nc3nc(N)c(C(=O)c4cccc(C)c4)s3)cc2)C1 (centres unmarked)
result: 5.81

query: Now the molecule CCc1cccc(C(=O)c2sc(Nc3ccc(OCCN(C)C)cc3)nc2N)c1
result: 6.28

query: Now the molecule Nc1nc(Nc2ccc(OCCN3CCCC3)cc2)sc1C(=O)c1cccc(C2CC2)c1
result: 5.86

query: Now the molecule CCc1cccc(C(=O)c2sc(Nc3ccc(OCCN4CCCC4)cc3)nc2N)c1
result: 6.40
